Assay: Half life in Sprague-Dawley rat at 1 mg/kg, iv and 2 mg/kg, po
Type: ADME, organism-based
Details: in vivo
# if measured half-life < 70 min: Fulfilled  # else: Not fulfilled

Prompt: Bench note: check whether `CC[C@@]12CCC(=O)C(C(F)(F)F)=C1c1ccc3[nH]ncc3c1C2` shows half-life below 70 min
Completion: Fulfilled

Prompt: Could you please tell me whether half-life recorded for `CC[C@@]12CCC(=O)C(C(F)(F)F)=C1c1ccc3[nH]nc(F)c3c1C2` is less than 70 min?
Completion: Not fulfilled

Prompt: Would you kindly verify if half-life of `CCCC[C@@]12CCC(=O)C(C(F)(F)F)=C1c1ccc3[nH]ncc3c1C2` is strictly less than 70 min?
Completion: Fulfilled

Prompt: Quick check: does `CCCC[C@@]12CCC(=O)C(C(F)(F)F)=C1c1ccc3[nH]ncc3c1C2=O` have half-life under 70 min?
Completion: Not fulfilled

Prompt: # TODO verify half-life < 70 min strictly for this compound: `CC[C@@]12CCC(=O)C(Cl)=C1c1ccc3[nH]ncc3c1C2`
Completion: Fulfilled

Prompt: Item `CC[C@@]12CCC(=O)C(C)=C1c1ccc3[nH]ncc3c1C2` : half-life beneath 70 min, strictly?
Completion: Fulfilled

Let us examine a further case.
Prompt: State whether 70 min exceeds half-life recorded for `CC[C@]12CCC(=O)C(C)=C1c1ccc3[nH]ncc3c1C2` .
Completion: Fulfilled

----------
Target: Estrogen receptor (Homo sapiens, UniProt P03372)
Sequence (P03372 whole entry): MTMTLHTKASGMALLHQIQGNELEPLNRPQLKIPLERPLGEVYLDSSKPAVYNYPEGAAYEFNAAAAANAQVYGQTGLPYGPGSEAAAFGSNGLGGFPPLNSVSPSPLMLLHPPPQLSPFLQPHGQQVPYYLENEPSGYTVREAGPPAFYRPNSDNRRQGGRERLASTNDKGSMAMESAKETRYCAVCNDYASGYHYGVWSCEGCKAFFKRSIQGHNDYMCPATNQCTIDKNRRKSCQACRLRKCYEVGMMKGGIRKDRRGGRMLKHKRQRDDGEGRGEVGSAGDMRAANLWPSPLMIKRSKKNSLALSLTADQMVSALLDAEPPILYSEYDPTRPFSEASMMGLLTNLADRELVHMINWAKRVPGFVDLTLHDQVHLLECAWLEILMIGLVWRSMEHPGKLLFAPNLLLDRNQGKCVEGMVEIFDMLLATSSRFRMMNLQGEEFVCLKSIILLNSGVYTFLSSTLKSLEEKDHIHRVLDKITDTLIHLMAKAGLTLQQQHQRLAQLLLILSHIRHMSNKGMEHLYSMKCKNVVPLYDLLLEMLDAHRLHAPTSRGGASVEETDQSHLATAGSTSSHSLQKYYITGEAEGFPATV
metricName: IC50 (nM)
Give the quantity in nM, number only.

A selection of reference data follows.
Prompt: Item: `CC[C@@]12CCC(=O)C(Cl)=C1c1ccc3[nH]nc(F)c3c1C2` Test system: Estrogen receptor (Homo sapiens, UniProt P03372) Read-out: IC50 Value: ?
Completion: 82

Prompt: Hi! What's the reported IC50 for `CC[C@@]12CCC(=O)C(c3ccccc3)=C1c1ccc3[nH]ncc3c1C2` on Estrogen receptor (Homo sapiens, UniProt P03372)?
Completion: 46

Prompt: Tell me reported IC50 for CCCC12CCC(=O)C(C)=C1c1ccc3[nH]ncc3c1C2 (racemic) , tested with Estrogen receptor (Homo sapiens, UniProt P03372).
Completion: 976

Prompt: // fetch Estrogen receptor (Homo sapiens, UniProt P03372) IC50 for `CC[C@@]12CCC(=O)C(C3CC3)=C1c1ccc3[nH]ncc3c1C2`
Completion: 470

Prompt: Item `CC[C@@]12CCC(=O)C(C(F)(F)F)=C1c1ccc3[nH]nc(F)c3c1C2` with Estrogen receptor (Homo sapiens, UniProt P03372) - IC50?
Completion: 50.9

More entries:
Prompt: Give Estrogen receptor (Homo sapiens, UniProt P03372) IC50 for CCCCC12CCC(=O)C(C3CC3)=C1c1ccc3[nH]ncc3c1C2 (racemic)
Completion: 422

----------
Target: Estrogen receptor (Homo sapiens)
metricName: EC50 (µM)
Your answer is read as µM, so omit the unit and give the number.

See these solved cases before continuing.
Prompt: Lab note: need EC50 with Estrogen receptor (Homo sapiens) for entry `CC[C@@]12CCC(=O)C(Br)=C1c1ccc3[nH]ncc3c1C2` , please look it up.
Completion: 0.065

Prompt: Query the reported EC50 for Estrogen receptor (Homo sapiens); item: CCC1=C2c3ccc4[nH]ncc4c3CC2(CC)CCC1=O (racemic)
Completion: 0.059

Prompt: Hi! What's the reported EC50 for `CC[C@@]12CCC(=O)C(c3ccccc3)=C1c1ccc3[nH]ncc3c1C2` on Estrogen receptor (Homo sapiens)?
Completion: 0.072

***
Prompt: Record `CC[C@@]12CCC(=O)C(C(F)(F)F)=C1c1ccc3[nH]ncc3c1C2` : what is its EC50 with Estrogen receptor (Homo sapiens)?
Completion: 0.05

Prompt: Find EC50 (Estrogen receptor (Homo sapiens)) for the entry `CC[C@@]12CCC(=O)C(C(F)(F)F)=C1c1ccc3[nH]ncc3c1C2=O`
Completion: 0.0104

----------
Assay: AUC in Sprague-Dawley rat at 1 mg/kg, iv
Type: ADME, organism-based
Parameters: dose 1 mg/kg, route intravenous
Settings: plasma
Could you mark each record 1 if its AUC falls strictly under 1 µM·h, and 0 if it equals or exceeds it?

Known results for compounds:
Prompt: Take the compound `CC[C@@]12CCC(=O)C(C)=C1c1ccc3[nH]ncc3c1C2` and say whether its AUC is less than 1 µM·h.
Completion: 0

Prompt: Just wondering, is AUC of `CC[C@@]12CCC(=O)C(C(F)(F)F)=C1c1ccc3[nH]ncc3c1C2=O` below 1 µM·h?
Completion: 0

***
Prompt: State whether 1 µM·h exceeds AUC recorded for `CC[C@@]12CCC(=O)C(Br)=C1c1ccc3[nH]ncc3c1C2` .
Completion: 1

Prompt: Hello, is AUC of the following compound strictly smaller than 1 µM·h? `O=C1CC[C@@]2(CCC3CC3)Cc3c(ccc4[nH]ncc34)C2=C1Br`
Completion: 1

Prompt: Does the reported AUC of the following compound sit strictly below 1 µM·h? `CC[C@@]12CCC(=O)C(C(F)(F)F)=C1c1ccc3[nH]nc(F)c3c1C2`
Completion: 0

----------
Target: Estrogen receptor beta (Homo sapiens, UniProt Q92731)
Sequence (Q92731 whole entry): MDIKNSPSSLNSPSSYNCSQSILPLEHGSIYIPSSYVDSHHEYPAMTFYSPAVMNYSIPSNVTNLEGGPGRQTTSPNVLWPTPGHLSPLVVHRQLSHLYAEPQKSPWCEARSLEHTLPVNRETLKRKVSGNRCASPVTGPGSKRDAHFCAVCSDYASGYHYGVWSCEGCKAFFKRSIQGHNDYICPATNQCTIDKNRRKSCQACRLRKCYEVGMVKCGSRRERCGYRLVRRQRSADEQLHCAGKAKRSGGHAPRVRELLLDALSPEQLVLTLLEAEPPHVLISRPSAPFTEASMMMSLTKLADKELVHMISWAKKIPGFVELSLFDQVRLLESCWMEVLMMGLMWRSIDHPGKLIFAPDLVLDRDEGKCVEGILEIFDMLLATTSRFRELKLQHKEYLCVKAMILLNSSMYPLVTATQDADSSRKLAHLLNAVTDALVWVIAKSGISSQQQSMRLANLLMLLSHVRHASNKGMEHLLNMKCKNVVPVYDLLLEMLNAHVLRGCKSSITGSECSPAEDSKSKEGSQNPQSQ
Define the label as Criterion met when EC50 is strictly less than 0.8 nM and as Criterion not met in all remaining cases.

Example cases with answers are listed next.
Prompt: Please state whether EC50 is below 0.8 nM for `CC[C@@]12CCC(=O)C(C)=C1c1ccc3[nH]ncc3c1C2`
Completion: Criterion not met

Prompt: Is EC50 strictly under 0.8 nM for the entry CCC12CCC(=O)C(C(=O)OC)=C1c1ccc3[nH]ncc3c1C2 (racemic) ?
Completion: Criterion not met

Prompt: Please determine if `CC[C@@]12CCC(=O)C(Cl)=C1c1ccc3[nH]ncc3c1C2` is below 0.8 nM in terms of EC50.
Completion: Criterion not met

Prompt: EC50 strictly < 0.8 nM for this molecule? CCC12CCC(=O)C=C1c1ccc3[nH]ncc3c1C2 (racemic)
Completion: Criterion not met

Prompt: Does `CC[C@@]12CCC(=O)C(C(F)(F)F)=C1c1ccc3[nH]nc(F)c3c1C2` have EC50 strictly under 0.8 nM?
Completion: Criterion met

Prompt: Lab note: confirm whether the reported EC50 for this molecule is below 0.8 nM, equality not counting. molecule: `O=C1CC[C@@]2(CCC3CC3)Cc3c(ccc4[nH]ncc34)C2=C1Br`
Completion: Criterion not met

Next:
Prompt: Input `CC[C@@]12CCC(=O)C(C(F)(F)F)=C1c1ccc3[nH]ncc3c1C2=O` ; condition: EC50 strictly below 0.8 nM. Does it hold?
Completion: Criterion met

Prompt: # TODO verify EC50 < 0.8 nM strictly for this molecule: CCC1=C2c3ccc4[nH]ncc4c3CC2(CC)CCC1=O (racemic)
Completion: Criterion not met

----------
Assay: Oral bioavailability in Sprague-Dawley rat at 1 mg/kg, iv and 2 mg/kg, po
Assay type: ADME, organism-based
Conditions: in vivo
Classification field: T = bioavailability at or over 50%; F = bioavailability under 50%.

Check out these entries, answers already filled in.
Prompt: Is bioavailability at least 50%? Consider `CC[C@@]12CCC(=O)C(C(F)(F)F)=C1c1ccc3[nH]nc(F)c3c1C2`
Completion: F

Prompt: Determine whether this compound has bioavailability no lower than 50%: `CC[C@@]12CCC(=O)C(Cl)=C1c1ccc3[nH]ncc3c1C2`
Completion: F

Prompt: Does bioavailability meet or surpass 50% for `CCCC[C@@]12CCC(=O)C(C(F)(F)F)=C1c1ccc3[nH]ncc3c1C2=O` ?
Completion: F

Prompt: Quick check: does `CC[C@@]12CCC(=O)C(C(F)(F)F)=C1c1ccc3[nH]ncc3c1C2=O` have bioavailability greater than or equal to 50%?
Completion: T

Prompt: Check this compound for bioavailability at or above 50%: `CC[C@]12CCC(=O)C(C)=C1c1ccc3[nH]ncc3c1C2`
Completion: F

Prompt: Check this compound for bioavailability at or above 50%: `CC[C@@]12CCC(=O)C(C(F)(F)F)=C1c1ccc3[nH]ncc3c1C2`
Completion: T

***
Prompt: # bool: bioavailability of `CCCC[C@@]12CCC(=O)C(C(F)(F)F)=C1c1ccc3[nH]ncc3c1C2` >= 50%
Completion: F

Prompt: Decide: is the reported value of bioavailability for `CC[C@@]12CCC(=O)C(C3CC3)=C1c1ccc3[nH]ncc3c1C2` equal to or greater than 50%?
Completion: T
